- System: NOMO1
- METHOD: AUC of viability dose-response curve (% viability x log10 dose units); higher = less sensitive
- CONDITIONS USED: HPLM + 10% dialyzed FBS; 48 h
Provide the recorded AUC of viability dose-response curve for the entries that follow.
Number, no unit, nothing else.

Prompt line: Quick one: AUC of viability dose-response curve for `COC(=O)N[C@H](C(=O)N[C@@H](Cc1ccccc1)[C@@H](O)CN(Cc1ccc(-c2ccccn2)cc1)NC(=O)[C@@H](NC(=O)OC)C(C)(C)C)C(C)(C)C` ?
Response line: 388

Prompt line: Quick one: AUC of viability dose-response curve for `CCOC(=O)c1ncn2c1CN(C)C(=O)c1cc(F)ccc1-2` ?
Response line: 433

Prompt line: Quick one: AUC of viability dose-response curve for `O=C1c2cccc(O)c2C(=O)c2c(O)cc(CO)cc21` ?
Response line: 417

Prompt line: Quick one: AUC of viability dose-response curve for `Cc1nc2c([nH]1)-c1ccccc1N(C(=O)c1ccc(NC(=O)c3ccccc3-c3ccccc3)cc1)CC2` ?
Response line: 470

* * *

- Test system: NOMO1
- METHOD: cell viability relative to DMSO control; higher = less cytotoxic
- CONDITIONS USED: HPLM + 10% dialyzed FBS; 48 h; 5.12 µM
Provide the recorded cell viability for the entries that follow.
Respond with the bare value in %.

Prompt line: Could you share what cell viability was measured for `CO[C@@H]1[C@H](N(C)C(=O)c2ccccc2)C[C@H]2O[C@]1(C)n1c3ccccc3c3c4c(c5c6ccccc6n2c5c31)C(=O)NC4` , tested on NOMO1?
Response line: 80

Prompt line: Could you share what cell viability was measured for CC(=O)SCC(Cc1ccccc1)C(=O)NCC(=O)OCc1ccccc1 (stereo unspecified) , tested on NOMO1?
Response line: 63.9

Prompt line: Could you share what cell viability was measured for `CC(C)[C@H](CO)Nc1nc(Nc2ccc(C(=O)O)c(Cl)c2)c2ncn(C(C)C)c2n1` , tested on NOMO1?
Response line: 79.4

Prompt line: Could you share what cell viability was measured for CCOc1ccccc1OCCNC(C)Cc1ccc(OC)c([S+](N)(=O)[O-])c1 (stereo unspecified) , tested on NOMO1?
Response line: 109

Prompt line: Could you share what cell viability was measured for `C[C@@]12OC(=O)[C@@]1(NC(=O)[C@@H]2CCCl)[C@@H](O)[C@H]\3CCC\C=C3` , tested on NOMO1?
Response line: 4.84

Prompt line: Could you share what cell viability was measured for `CC1(C)O[C@H]2CC(=O)OC[C@]23[C@H]2CC[C@@]4(C)[C@H](c5ccoc5)OC(=O)[C@H]5O[C@]54[C@]2(C)C(=O)C[C@@H]13` , tested on NOMO1?
Response line: 114

Prompt line: Could you share what cell viability was measured for `CN(C)c1ccc(C(=O)NCCCCCCC(=O)NO)cc1` , tested on NOMO1?
Response line: 7.42

Prompt line: Could you share what cell viability was measured for `CCCCc1oc2ccc(NS(C)(=O)=O)cc2c1C(=O)c1ccc(OCCCN(CCCC)CCCC)cc1` , tested on NOMO1?
Response line: 34

Prompt line: Could you share what cell viability was measured for `O=C1c2cccc(O)c2C(=O)c2c(O)cc(CO)cc21` , tested on NOMO1?
Response line: 81.9

Prompt line: Could you share what cell viability was measured for `Cl.Cl.Fc1ccc(C(OCCN2CCN(CCCc3ccccc3)CC2)c2ccc(F)cc2)cc1` , tested on NOMO1?
Response line: 104

Prompt line: Could you share what cell viability was measured for `CCOC(=O)c1ncn2c1CN(C)C(=O)c1cc(F)ccc1-2` , tested on NOMO1?
Response line: 108

Prompt line: Could you share what cell viability was measured for `Cc1ccc(F)c(NC(=O)Nc2ccc(-c3cccc4[nH]nc(N)c34)cc2)c1` , tested on NOMO1?
Response line: 117

Prompt line: Could you share what cell viability was measured for `N#Cc1c(C2CCNCC2)cc(-c2c(O)cccc2OCC2CC2)nc1N` , tested on NOMO1?
Response line: 105

Prompt line: Could you share what cell viability was measured for `Nc1ccc([S+](=O)([O-])Nc2ccccn2)cc1` , tested on NOMO1?
Response line: 116

Prompt line: Could you share what cell viability was measured for `CN(C(=O)c1ccc(F)cc1C(F)(F)F)C1CCN(c2nnc(-c3ccnn3C)c3ccccc23)CC1` , tested on NOMO1?
Response line: 85.2

Prompt line: Could you share what cell viability was measured for `NC/1=N/C(=O)N(/C=C1)[C@H]2CC[C@@H](CO)O2` , tested on NOMO1?
Response line: 82.8

Prompt line: Could you share what cell viability was measured for `COc1ccc2cccc(CCNC(C)=O)c2c1` , tested on NOMO1?
Response line: 101

Prompt line: Could you share what cell viability was measured for O=P(O)(O)C(O)(Cc1cccnc1)P(=O)(O)[O][Na] (stereo unspecified) , tested on NOMO1?
Response line: 116

Prompt line: Could you share what cell viability was measured for `C[C@@H]1CN(CC(=O)N2CC(C)(C)c3ncc(Cc4ccc(F)cc4)cc32)[C@@H](CN2CCOC[C@H]2C)CN1` , tested on NOMO1?
Response line: 109

Prompt line: Could you share what cell viability was measured for Cc1c(OCC(F)(F)F)ccnc1C[S+]([O-])c1nc2ccccc2[nH]1 (stereo unspecified) , tested on NOMO1?
Response line: 113

Prompt line: Could you share what cell viability was measured for `c1cc(-c2sc(-c3ccncc3)c(-c3ccncc3)c2-c2ccncc2)ccn1` , tested on NOMO1?
Response line: 124

* * *

- Tested on: NOMO1
- METHOD: cell viability relative to DMSO control; higher = less cytotoxic
- CONDITIONS USED: RPMI 5 mM glucose + 10% FBS; 48 h; 0.0632 µM
MEASUREMENT TYPE: cell viability
Value and unit, in that order.

Prompt line: Could you share what cell viability was measured for `C[C@@H]1CN(CC(=O)N2CC(C)(C)c3ncc(Cc4ccc(F)cc4)cc32)[C@@H](CN2CCOC[C@H]2C)CN1` , tested on NOMO1?
Response line: 117%

Prompt line: Could you share what cell viability was measured for CC1OC(OC/2=C(/OC3=C(C(=CC(=C3)O)O)C2=O)C4=CC=C(O)C=C4)C(O)C(OC(C)=O)C1OC(C)=O (stereo not drawn) , tested on NOMO1?
Response line: 117%

Prompt line: Could you share what cell viability was measured for `O=C(c1ccc(F)cc1)C1CCN(CCn2c(=O)[nH]c3ccccc3c2=O)CC1` , tested on NOMO1?
Response line: 105%

Prompt line: Could you share what cell viability was measured for `Cc1cnc(Nc2ccc(OCCN3CCCC3)cc2)nc1Nc1cccc([S+](=O)([O-])NC(C)(C)C)c1` , tested on NOMO1?
Response line: 108%

Prompt line: Could you share what cell viability was measured for `CN(C)c1nc(N(C)C)nc(N(C)C)n1` , tested on NOMO1?
Response line: 99%

Prompt line: Could you share what cell viability was measured for `C[C@H]([C@H]1C\C(=C(CO)/C(=O)O1)C)[C@H]2CC[C@H]3[C@@H]4C[C@H]5O[C@]56[C@@H](O)\C=C/C(=O)[C@]6(C)[C@H]4CC[C@]23C` , tested on NOMO1?
Response line: 119%

Prompt line: Could you share what cell viability was measured for `c1ccc2c(-c3cnn4cc(-c5ccc(N6CCNCC6)cc5)cnc34)ccnc2c1` , tested on NOMO1?
Response line: 132%

Prompt line: Could you share what cell viability was measured for `COc1ccc(-c2c(-c3ccc(O)cc3O)n[nH]c2C)cc1` , tested on NOMO1?
Response line: 100%

* * *

- Tested on: P12-Ichikawa
- METHOD: cell viability relative to DMSO control; higher = less cytotoxic
- CONDITIONS USED: RPMI 5 mM glucose + 10% dialyzed FBS; 48 h; 0.00702 µM
Provide the recorded cell viability for the entries that follow.
Respond with the bare value in %.

Prompt line: Quick one: cell viability for COc1ccc(-c2nc3cc(C4=NNC(=O)CC4C)ccc3[nH]2)cc1 (centres undefined) ?
Response line: 104

Prompt line: Quick one: cell viability for `CN(C)[C@H]\1[C@@H]2[C@@H](O)[C@@H]\3C(=C)C4=C(C(=CC=C4)O)C(=O)C3=C(\O)[C@@]2(O)C(=O)\C(=C1O)C(N)=O` ?
Response line: 119

Prompt line: Quick one: cell viability for `COc1ccc(CCC(=O)Nc2nc3ccc(Cl)cc3s2)cc1OC` ?
Response line: 105

Prompt line: Quick one: cell viability for `CCCn1c(=O)c2[nH]c(-c3cnn(Cc4cccc(C(F)(F)F)c4)c3)nc2n(CC)c1=O` ?
Response line: 105

Prompt line: Quick one: cell viability for `CC(C)(O)CNc1nc(Nc2ccnc(C(F)(F)F)c2)nc(-c2cccc(C(F)(F)F)n2)n1` ?
Response line: 115

Prompt line: Quick one: cell viability for `CC1=CC2=C(O1)C(=C3OC(=O)\C=C(C)/C3=C2)C` ?
Response line: 110

Prompt line: Quick one: cell viability for `C=C1C[C@@]2(O)O[C@@]3(C[C@H]2C(C)C)[C@@H](C)CC[C@@H]13` ?
Response line: 116

Prompt line: Quick one: cell viability for `O=C(NC1CC1)c1cccc(-c2ccc3c(NC(=O)C4CC4)n[nH]c3c2)c1` ?
Response line: 118

Prompt line: Quick one: cell viability for CN1C(=O)COc2c(C(=O)NC3CN4CCC3CC4)cc(Cl)cc21 (centres undefined) ?
Response line: 101
